Target Desc: Egl nine homolog 1 (Homo sapiens, UniProt Q9GZT9)
Sequence (Q9GZT9 whole entry, the tested form may be a part): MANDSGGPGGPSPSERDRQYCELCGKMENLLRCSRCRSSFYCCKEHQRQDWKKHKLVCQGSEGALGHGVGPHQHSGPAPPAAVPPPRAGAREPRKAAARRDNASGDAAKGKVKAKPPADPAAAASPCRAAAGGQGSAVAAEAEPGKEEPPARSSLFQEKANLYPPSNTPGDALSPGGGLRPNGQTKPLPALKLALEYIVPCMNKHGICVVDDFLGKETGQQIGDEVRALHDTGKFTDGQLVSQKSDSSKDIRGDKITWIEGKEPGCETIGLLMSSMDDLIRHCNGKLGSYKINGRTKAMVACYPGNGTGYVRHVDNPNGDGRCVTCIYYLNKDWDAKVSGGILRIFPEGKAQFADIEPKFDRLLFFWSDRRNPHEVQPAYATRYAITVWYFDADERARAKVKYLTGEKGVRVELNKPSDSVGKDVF
Assay Remarks: Binding affinity to human PHD2 catalytic domain (181 to 426) Mn2 expressed in Escherichia coli by NMR spectroscopic analysis
Please provide measured Kd for the entries that follow.
// units = µM; emit number, no label

Lab note: O=C(O)/C=C/C(=O)O [FUMARIC ACID] gave Kd of 200

Lab note: O=C(O)Cc1cs/c(=N\C(=O)CS(=O)(=O)Cc2ccc3ccccc3c2)n1O gave Kd of 0.1

====

Target Desc: Lysine-specific demethylase 2A (Homo sapiens) (UniProt Q9Y2K7)
Sequence (Q9Y2K7 whole entry): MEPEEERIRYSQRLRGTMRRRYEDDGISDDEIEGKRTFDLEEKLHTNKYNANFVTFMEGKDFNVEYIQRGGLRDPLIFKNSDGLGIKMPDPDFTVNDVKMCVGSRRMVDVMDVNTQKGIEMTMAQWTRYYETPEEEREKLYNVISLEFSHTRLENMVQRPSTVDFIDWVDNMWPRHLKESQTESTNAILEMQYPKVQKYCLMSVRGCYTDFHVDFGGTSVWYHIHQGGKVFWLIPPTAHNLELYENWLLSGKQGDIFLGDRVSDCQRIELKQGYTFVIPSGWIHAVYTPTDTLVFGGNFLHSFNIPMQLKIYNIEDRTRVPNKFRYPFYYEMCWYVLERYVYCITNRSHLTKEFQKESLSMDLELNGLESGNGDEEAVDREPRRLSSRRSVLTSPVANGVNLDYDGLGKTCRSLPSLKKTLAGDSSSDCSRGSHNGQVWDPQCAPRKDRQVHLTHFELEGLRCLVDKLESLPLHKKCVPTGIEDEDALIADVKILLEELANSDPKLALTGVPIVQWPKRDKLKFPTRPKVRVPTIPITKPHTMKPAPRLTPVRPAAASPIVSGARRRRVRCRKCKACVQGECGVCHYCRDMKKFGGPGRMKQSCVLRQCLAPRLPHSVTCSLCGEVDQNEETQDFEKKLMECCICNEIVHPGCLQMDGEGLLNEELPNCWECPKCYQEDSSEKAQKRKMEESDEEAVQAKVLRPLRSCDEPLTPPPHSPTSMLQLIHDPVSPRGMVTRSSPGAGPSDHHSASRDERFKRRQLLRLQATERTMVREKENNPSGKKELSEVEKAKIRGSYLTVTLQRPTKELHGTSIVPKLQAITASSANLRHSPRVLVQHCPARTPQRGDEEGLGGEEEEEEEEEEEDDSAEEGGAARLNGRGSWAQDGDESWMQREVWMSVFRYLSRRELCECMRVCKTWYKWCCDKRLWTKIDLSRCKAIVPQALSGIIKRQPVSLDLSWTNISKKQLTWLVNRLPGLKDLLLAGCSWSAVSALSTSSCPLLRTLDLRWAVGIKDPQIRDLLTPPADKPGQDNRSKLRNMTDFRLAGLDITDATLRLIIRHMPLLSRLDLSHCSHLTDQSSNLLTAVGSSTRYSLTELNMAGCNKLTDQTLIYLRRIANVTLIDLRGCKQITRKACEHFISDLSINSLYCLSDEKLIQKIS
Assay Remarks: Displacement of 2OG from FBXL11 (1 to 517) (unknown origin) expressed in Escherichia coli at 800 uM
Readout Label: inhibition

Lab note: O=C(O)Cc1cs/c(=N\C(=O)CS(=O)(=O)Cc2ccc3ccccc3c2)n1O gave inhibition of 90%

Lab note: O=C(O)c1ccnc(C(=O)O)c1 gave inhibition of 70%

Lab note: O=C(O)CNC(=O)C(=O)O gave inhibition of 30%

Lab note: O=C(O)c1ccc(O)c2ncccc12 gave inhibition of 65%

====

Species: Homo sapiens
Assay Remarks: Displacement of 2OG from FIH (unknown origin) expressed in Escherichia coli at 400 uM
Calls of active or inactive are those of the source. No cut-off for these calls is given here.
Readout Label: inhibition

[
  {
    "Molecule": "O=C(O)CC(O)C(=O)O (centres undefined)",
    "Experimental Result": "inactive"
  },
  {
    "Molecule": "O=C(O)CCC(=O)O",
    "Experimental Result": "inactive"
  },
  {
    "Molecule": "O=C(O)CC(O)(CC(=O)O)C(=O)O",
    "Experimental Result": "inactive"
  },
  {
    "Molecule": "O=C(O)CC(C(=O)O)C(O)C(=O)O (centres undefined) [ISOCITRATE]",
    "Experimental Result": "inactive"
  }
]

Every entry's value here was drawn from ChEMBL document CHEMBL2311536.
